The measurements presented in this section are drawn from ChEMBL document CHEMBL1134890.

# Ki per entry
# tested_target: Neuromedin-K receptor (Homo sapiens)
# Sequence (P29371 whole entry): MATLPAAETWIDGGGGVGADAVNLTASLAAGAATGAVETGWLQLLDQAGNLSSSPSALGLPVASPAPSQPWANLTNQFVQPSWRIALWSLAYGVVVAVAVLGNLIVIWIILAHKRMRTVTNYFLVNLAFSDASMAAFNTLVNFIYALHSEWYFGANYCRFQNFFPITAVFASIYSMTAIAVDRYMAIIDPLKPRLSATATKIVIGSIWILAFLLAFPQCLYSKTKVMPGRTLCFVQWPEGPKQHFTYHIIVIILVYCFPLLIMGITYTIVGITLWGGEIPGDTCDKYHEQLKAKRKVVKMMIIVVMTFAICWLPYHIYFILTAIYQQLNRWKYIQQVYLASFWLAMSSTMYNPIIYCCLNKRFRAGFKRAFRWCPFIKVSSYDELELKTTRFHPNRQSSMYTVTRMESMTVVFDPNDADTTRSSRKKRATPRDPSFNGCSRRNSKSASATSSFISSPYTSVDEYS
# protocol_text: Binding affinity against recombinant human tachykinin receptor 3 in CHO cells using [125I][MePhe]-NKB as radioligand
property_measured: Ki (nM)

given_smiles=CO/N=C(\CN(CCF)C(=O)c1cc(Cl)cc(Cl)c1)[C@H](CCN1CCC(n2c(O)nc3ccccc32)CC1)c1ccc(Cl)c(Cl)c1 uom=nM val=231
given_smiles=CO/N=C(\CN(C)C(=O)c1cc(Cl)cc(Cl)c1)[C@H](CCN1CCC(N2CCCN(Cc3ccccn3)C2=O)CC1)c1ccc(Cl)c(Cl)c1 uom=nM val=0.8
given_smiles=CO/N=C(\CN(C)C(=O)c1cc(Cl)cc(Cl)c1)[C@H](CCN1CCC(N2CCCN(Cc3ccsc3)C2=O)CC1)c1ccc(Cl)c(Cl)c1 uom=nM val=3.2
given_smiles=CO/N=C(\CN(C)C(=O)c1cc(Cl)cc(Cl)c1)[C@H](CCN1CCC(N2CCCN(c3ccccn3)C2=O)CC1)c1ccc(Cl)c(Cl)c1 uom=nM val=0.5
given_smiles=CO/N=C(\CN(C)C(=O)c1cc(Cl)cc(Cl)c1)[C@H](CCN1CCC(N2CCCN(N3CCOCC3)C2=O)CC1)c1ccc(Cl)c(Cl)c1 uom=nM val=0.5
given_smiles=CCN(C/C(=N\OC)[C@H](CCN1CCC(n2c(=O)n(CC(=O)O)c3ccccc32)CC1)c1ccc(Cl)c(Cl)c1)C(=O)c1cc(Cl)cc(Cl)c1 uom=nM val=176
